Data origin, for the record: patent US20090317457A1

- Tested on: λ-carrageenan induced neutrophil mediated inflammation of the footpad
- experiment-summary: λ-carrageenan-induced footpad inflammation (footpad swelling)
- Assay type: in vivo, BALB/c mice
- assay-context: 6 h
readout-type: suppression of footpad inflammation relative to PBS (%)

# substance, target-of-assay, reported
data = [
    ("N-LLPATMSDKPDMAEIEKFDKSKLKKTE-TQEKNPLPSKETIEQEKQAGES-C (SEQ ID NO:8) (LLPATMSDKPDMAEIEKFDKSKLKKTETQEKNPLPSKETIEQEKQAGES; listed as Homo sapiens) [LTβ4, lymphoid thymosin-β4 polypeptide, un-methionated form, chemically synthesised]", "λ-carrageenan induced neutrophil mediated inflammation of the footpad", 21),
    ("N-MLLPATMSDKPDMAEIEIFDKSKILITE-TQEKNPLPSKETIEQEKQAGES-C (SEQ ID NO:9) (MLLPATMSDKPDMAEIEKFDKSKLKKTETQEKNPLPSKETIEQEKQAGES; listed as Homo sapiens) [mLTβ4, N-terminal methionated lymphoid thymosin-β4, chemically synthesised]", "λ-carrageenan induced neutrophil mediated inflammation of the footpad", 50),
    ("N-MSDKPDMAEIEKFDKSKLKKTETQEINPL-PSIETIEQEKQAGES-C (SEQ ID NO:2) [mUTβ4]", "λ-carrageenan induced neutrophil mediated inflammation of the footpad", 29),
    ("N-SDKPDMAEIEKFDKSKLKKTETQEKNPL-PSKETIEQEKQAGES-C (SEQ ID NO:1) [UTβ4]", "λ-carrageenan induced neutrophil mediated inflammation of the footpad", 12),
]
